Biological target: T1, human 5T4 (32-355) tagged with poly-his at the C-terminus (ACROBiosystems, CAT #TPG-H52E5) (human, UniProt Q13641 32-355)
T1 construct: range 32-355; Bought protein; also called recombinant human 5T4; recombinant 5T4 Ser32-Ser355; not shown: C-terminal poly-his tag
T1 sequence (looked up): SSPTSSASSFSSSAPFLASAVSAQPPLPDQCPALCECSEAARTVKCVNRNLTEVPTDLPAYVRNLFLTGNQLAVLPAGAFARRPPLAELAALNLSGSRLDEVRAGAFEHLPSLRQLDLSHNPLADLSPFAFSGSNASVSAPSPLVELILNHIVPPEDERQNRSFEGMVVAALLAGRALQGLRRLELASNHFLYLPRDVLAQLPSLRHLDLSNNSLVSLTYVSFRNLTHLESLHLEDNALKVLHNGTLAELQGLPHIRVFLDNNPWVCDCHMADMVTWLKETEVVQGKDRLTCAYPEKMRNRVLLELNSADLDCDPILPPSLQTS
Assay: ELISA, 5T4-His coated on the plate

binder	binding result
S2F4-C (antibody, V domains shown, Mouse VH and VL fused to human IgG1 heavy and kappa light constant regions; also called chimeric version of S2F4) VH: EVQLVESGGGLVKPGGSLKLSCAASGFTFSDYGMHWVRQAPEKGLEWIAYISFGSSTIYYADTVKGRFTISRDNAKNTLFLQMTSLRSEDTAMYYCARTHGYYRSWFAYWGQGTLVTVSA VL: DIVLTQSPASLAVSLGQRATISCRASQSVSTSSYSYMNWYQQKPGQPPKLLIKYASNLESGVPARFSGSGSGTDFTLNIHPVEEEDTATYYCQHSWEIPLTFGAGTKLELK	binds
L3D5-C (antibody, V domains shown, Mouse VH and VL fused to human IgG1 heavy and kappa light constant regions; also called chimeric version of L3D5) VH: GVQLQQSGPELVKPGASVKISCKASGYTFTDFYMNWVKQSHGKSLEWIGDINPNNGVTTYNQKFKDKATLTVDKSSSTAYMELRSLTSEDSAVYYCATGAIHYGYDGYFDVWGAGTTVTVSS VL: DIVMTQSPATLSVTPGDRVSLSCRASQSISDYLHWYQQKSHESPRLLIKYASQSISGIPSRFSGSGSGSDFTLSINSVEPEDVGVYYCQNGHSFPLTFGAGTKLELK	binds
L3E1-C (antibody, V domains shown, Mouse VH and VL fused to human IgG1 heavy and kappa light constant regions; also called chimeric version of L3E1) VH: QVQLQQFGAELVKPGAAVKMSCKASGYTFTSYWITWVKQRPGQGLDWIGDIYPGGGSTNYHEKFKSKATLTVDTSSSTAYMQLSSLTSEDSAVYYCARGLRDFDYWGQGTTITVSS VL: DIQMTQTASSLSASLGDRVTISCRASQHINNYLNWYQQKPDGTVKLLIYSTSRLHSGVPSRFSGSGSGTDFSLTISNLEPEDIATYYCQQYSKLPRTFGGGTKLEIK	binds
